The measurements presented in this section are drawn from ChEMBL document CHEMBL1201862.

# Test system: A498
# experiment-notes: NCI tumour cell line growth inhibition, 48 h
Calls of active or inactive are those of the source. No stated cut-off is given here; in the data, active = GI50 up to about 1.1 µM and inactive = higher.
Parameter: GI50. Scope: all listed entries.

As a guide, the following entries are already answered.
CNc1ncccc1Nc1cc(=O)n2c3cccnc3n(C)c2c1	89.7 µM (inactive)
CC(=O)/C=C/c1cccc(N=S)c1	27 µM (inactive)
CC(=O)Nc1ccc(S(=O)(=O)/N=C2\C=CC(=O)c3ccccc32)cc1	10.3 µM (inactive)
OCC1OC(c2n[nH]c3c(O)ncnc23)C(O)C1O (stereo not drawn)	30.1 µM (inactive)

Output GI50 of `COC(=O)C(CBr)CBr`
16.8 µM (inactive)

Annotate the compound OC(c1ccccc1)c1c(-c2ccccc2)oc(-c2ccccc2)c1C(O)c1ccccc1 (stereo not drawn) with its measured GI50.
16.8 µM (inactive)

Return the recorded GI50 value; entry: O=[N+]([O-])c1nccn1CC(O)c1ccc(F)cc1 (stereo not drawn)
> 100 µM (inactive)

Answer with the recorded GI50 for the compound listed here: O=C1C2C(C(=O)N1O)N(Cc1ccccc1)C(=O)N2Cc1ccccc1 (stereo not drawn)
> 100 µM (inactive)

Read the entry `COC1(OC)C(/C(N)=C\O)=NC(C)(C)N1O` and write its reported GI50.
> 100 µM (inactive)

Determine its reported GI50: COC(=O)C1CC23C=CCN4CC(C2C)C2(c5ccccc5NC12)C43 (stereo not drawn)
> 100 µM (inactive)

Retrieve GI50 measured for `COc1ccccc1-c1cc(O)c2c(C)ccnc2n1` and print it.
27.6 µM (inactive)

Determine from records and report GI50 for `CCC/C(=N\NC(=S)N1CCN(c2ccccn2)CC1)c1ccccn1`
0.541 µM (active)

Provide only the value of recorded GI50 for `N#CCCCCCOCCOCCOCCOCCOCCCCCC#N`
> 100 µM (inactive)
